Ref: paper PMC12434521

- STUDY TARGET: human Kir2.1 (Homo sapiens)
- Construct: expressed in transfected cells
- Sequence (P63252 whole entry): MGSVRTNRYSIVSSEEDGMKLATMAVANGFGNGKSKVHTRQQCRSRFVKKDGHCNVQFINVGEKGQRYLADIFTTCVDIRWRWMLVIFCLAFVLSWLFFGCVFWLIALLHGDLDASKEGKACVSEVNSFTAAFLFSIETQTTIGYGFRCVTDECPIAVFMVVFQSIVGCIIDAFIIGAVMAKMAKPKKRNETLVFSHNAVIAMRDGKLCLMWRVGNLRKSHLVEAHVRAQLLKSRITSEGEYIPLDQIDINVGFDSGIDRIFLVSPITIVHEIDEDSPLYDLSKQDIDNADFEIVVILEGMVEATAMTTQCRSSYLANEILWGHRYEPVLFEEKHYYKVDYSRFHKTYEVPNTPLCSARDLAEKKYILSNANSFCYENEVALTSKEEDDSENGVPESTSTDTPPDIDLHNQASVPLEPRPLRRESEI
- ASSAY REMARKS: Kir2.1 manual patch clamp (MPC) assay
- Format: cell-based
- CONDITION SUMMARY: pH 7.4, -120 mV, normalized to 2 mM Ba2+ block; top concentration 10 μM (ML133 30 μM, 5t 3 μM)
MEASURE: IC50 (nM)

COc1ccc(CNCc2ccc(-c3cccc(F)c3)cc2)cc1    300
COc1ccc(CNCc2ccc(-c3cccc(OC)c3)cc2)cc1 [Compound 9]    210
COc1ccc(CNCc2cccc(-c3ccccc3)c2)cc1    390

1: COc1ccc(CNCc2ccc(-c3cccc(OC)c3)cc2)cc1 [Compound 11]
2: COc1ccc(CNCc2ccc(-c3cccc(OC)c3)cc2)cc1 [Compound 13]
3: [2H]C([2H])([2H])Oc1ccc(CNCc2cccc3ccccc23)cc1
Prompt: Order these by IC50, descending, and give the full ranking. The reply should contain the labels ordered as requested.
Completion: 3, 1, 2
(3: 3940 nM, 1: 330 nM, 2: 210 nM)

I: COc1ccc(CNCc2ccc(-c3ccccc3)cc2)cc1
II: COc1ccc(CNCc2ccc(-c3cccc(C#N)c3)cc2)cc1
Prompt: Between the entries labeled I and II , whose measured IC50 is lower? Label of pick, please.
Completion: II
(II: 480 nM, I: 1390 nM)

P: COc1ccc(CNCc2ccc(-c3cccc(OC)c3)cc2)cc1 [Compound 5s]
Q: COc1ccc(CNCc2ccc3c(c2)OC(F)(F)O3)cc1
Prompt: Which entry has a larger number for IC50, P or Q ? Label of pick, please.
Completion: Q
